# target.system: S-adenosylhomocysteine hydrolase
# measurement.conditions: read-out: Ki, AdoHcy hydrolase
reported.property: pKi
Please keep in mind that pKi is minus log10 of the molar concentration; only the number is needed.

State the recorded pKi for this entry: Nc1nccc2c1ncn2[C@@H]1C[C@H](CO)[C@@H](O)[C@H]1O (relative stereo) [(±)3-deazaaristeromycin]
5.52

* * *

# assay.text: Cell number in herpes I plaque assay
# Format: cell-based
# measurement.conditions: 50 uM, mouse L cells, read-out: % Control Cell Number
reported.property: activity at 72 h, 50 µM (%)
Please respond with the number in % and leave the unit unwritten.

State the recorded activity at 72 h, 50 µM for this entry: Nc1nccc2c1ncn2[C@@H]1C[C@H](CO)[C@@H](O)[C@H]1O (relative stereo) [(±)3-deazaaristeromycin]
95

* * *

# assay.text: Cell number in herpes I plaque assay
# Assay type: cell-based
# measurement.conditions: 20 uM, mouse L cells, read-out: % Control Cell Number
reported.property: activity at 72 h, 20 µM (%)
Please respond with the number in % and leave the unit unwritten.

State the recorded activity at 72 h, 20 µM for this entry: Nc1nccc2c1ncn2[C@@H]1C[C@H](CO)[C@@H](O)[C@H]1O (relative stereo) [(±)3-deazaaristeromycin]
95

* * *

# assay.text: Cell number in HL-23 foci formation assay
# Type: cell-based
# measurement.conditions: rat, nrk 153 cl 7 cells, 0.50 uM, read-out: % Control Cell Number
reported.property: activity at 120 h, 0.5 µM (%)
Please respond with the number in % and leave the unit unwritten.

State the recorded activity at 120 h, 0.5 µM for this entry: Nc1nccc2c1ncn2[C@@H]1C[C@H](CO)[C@@H](O)[C@H]1O (relative stereo) [(±)3-deazaaristeromycin]
96

* * *

# assay.text: Cell number in herpes I plaque assay
# Format: cell-based
# measurement.conditions: mouse L cells, 20-30 μM, read-out: Reduction in the cell number (cytotoxicity)
reported.property: cytotoxicity

State the recorded cytotoxicity for this entry: Nc1nccc2c1ncn2[C@@H]1C[C@H](CO)[C@@H](O)[C@H]1O (relative stereo) [(±)3-deazaaristeromycin]
≤ 5%

* * *

# assay.text: Cell number in HL-23 virus production assay
# Format: cell-based
# measurement.conditions: rat, nrkb/hl23 cells, 0.25 uM, read-out: % Control Cell Number
reported.property: activity at 72 h, 0.25 µM (%)
Please respond with the number in % and leave the unit unwritten.

State the recorded activity at 72 h, 0.25 µM for this entry: Nc1nccc2c1ncn2[C@@H]1C[C@H](CO)[C@@H](O)[C@H]1O (relative stereo) [(±)3-deazaaristeromycin]
100

* * *

# assay.text: Cell number in HL-23 foci formation assay
# Type: cell-based
# measurement.conditions: rat, nrk 153 cl 7 cells, 4.00 uM, read-out: % Control Cell Number
reported.property: activity at 120 h, 4 µM (%)
Please respond with the number in % and leave the unit unwritten.

State the recorded activity at 120 h, 4 µM for this entry: Nc1nccc2c1ncn2[C@@H]1C[C@H](CO)[C@@H](O)[C@H]1O (relative stereo) [(±)3-deazaaristeromycin]
53

* * *

# assay.text: Cell number in HL-23 virus production assay
# Type: cell-based
# measurement.conditions: rat, nrkb/hl23 cells, 0.50 uM, read-out: % Control Cell Number
reported.property: activity at 72 h, 0.5 µM (%)
Please respond with the number in % and leave the unit unwritten.

State the recorded activity at 72 h, 0.5 µM for this entry: Nc1nccc2c1ncn2[C@@H]1C[C@H](CO)[C@@H](O)[C@H]1O (relative stereo) [(±)3-deazaaristeromycin]
88

* * *

# assay.text: Cell number in HL-23 foci formation assay
# Format: cell-based
# measurement.conditions: rat, nrk 153 cl 7 cells, 1.00 uM, read-out: % Control Cell Number
reported.property: activity at 120 h, 1 µM (%)
Please respond with the number in % and leave the unit unwritten.

State the recorded activity at 120 h, 1 µM for this entry: Nc1nccc2c1ncn2[C@@H]1C[C@H](CO)[C@@H](O)[C@H]1O (relative stereo) [(±)3-deazaaristeromycin]
81

* * *

# assay.text: in vitro
# measurement.conditions: vaccinia assay host cells
reported.property: activity at 2 µM (%)
Please respond with the number in % and leave the unit unwritten.

State the recorded activity at 2 µM for this entry: Nc1nccc2c1ncn2[C@@H]1C[C@H](CO)[C@@H](O)[C@H]1O (relative stereo) [(±)3-deazaaristeromycin]
111

* * *

# assay.text: Cell number in herpes I plaque assay
# Format: cell-based
# measurement.conditions: 70 uM, mouse L cells, read-out: % Control Cell Number
reported.property: activity at 72 h, 70 µM (%)
Please respond with the number in % and leave the unit unwritten.

State the recorded activity at 72 h, 70 µM for this entry: Nc1nccc2c1ncn2[C@@H]1C[C@H](CO)[C@@H](O)[C@H]1O (relative stereo) [(±)3-deazaaristeromycin]
82

* * *

# assay.text: in vitro
# measurement.conditions: vaccinia assay host cells
reported.property: activity at 1 µM (%)
Please respond with the number in % and leave the unit unwritten.

State the recorded activity at 1 µM for this entry: Nc1nccc2c1ncn2[C@@H]1C[C@H](CO)[C@@H](O)[C@H]1O (relative stereo) [(±)3-deazaaristeromycin]
144

* * *

# assay.text: Cell number in HL-23 foci formation assay
# Format: cell-based
# measurement.conditions: rat, nrk 153 cl 7 cells, 2.00 uM, read-out: % Control Cell Number
reported.property: activity at 120 h, 2 µM

State the recorded activity at 120 h, 2 µM for this entry: Nc1nccc2c1ncn2[C@@H]1C[C@H](CO)[C@@H](O)[C@H]1O (relative stereo) [(±)3-deazaaristeromycin]
71%

Taken from patent US4386093A.
